# Protocol description: chemical genetic growth profiling, strain panel (AID 1159580);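 also: tested at 20 µM; growth read once vehicle control cultures reached saturation at 30 °C; 1 = growth at the plate median or of vehicle wells; lower values mean less growth of the strain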
# Condition info: S. cerevisiae deletion strains, growth OD, locus YMR307W, strain GAS1, stronger effect = lower value
Screen size: about 5,500 compounds; about 2,000 (36%) were called active. Roughly 18% stayed inconclusive and do not appear here. This is one part of the list.
So basically: is normalized growth under 1? Then T. Not under? Then F.

*Q* Is normalized growth strictly under 1 for the entry COc1cc(OC)c2c(c1Cl)OC1(C2=O)C(O)=CC(=O)CC1C (stereo unspecified) ?
*A* F

*Q* Is normalized growth strictly under 1 for the entry Cn1c(=O)[nH]c(=O)c2[nH]cnc21 ?
*A* T

*Q* Is normalized growth strictly under 1 for the entry Cn1nnnc1SCC1=C(C(=O)O)N2C(=O)C(NC(=O)C(OC=O)c3ccccc3)C2SC1 (stereo unspecified) ?
*A* F

*Q* Is normalized growth strictly under 1 for the entry Cc1c(N(C)CS(=O)(=O)O)c(=O)n(-c2ccccc2)n1C ?
*A* T

*Q* Is normalized growth strictly under 1 for the entry Cc1oc(-c2ccccc2)cc1C(=O)N1CCN(c2ccc(C(F)(F)F)cn2)CC1 ?
*A* T

*Q* Is normalized growth strictly under 1 for the entry Cc1ccc(/C(C#N)=C2C=C/C(=N/O)C(Cl)=C\2Cl)cc1 ?
*A* T

*Q* Is normalized growth strictly under 1 for the entry CC1=C(C(=O)O)N2C(=O)[C@@H](NC(=O)[C@H](N)C3=CCC=CC3)C2SC1 (stereo partly specified) ?
*A* T

###

# Protocol description: chemical genetic growth profiling, strain panel (AID 1159580);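 also: tested at 20 µM; growth read once vehicle control cultures reached saturation at 30 °C; 1 = growth at the plate median or of vehicle wells; lower values mean less growth of the strain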
# Condition info: S. cerevisiae deletion strains, growth OD, locus YGL167C, strain pmr1, stronger effect = lower value
Out of some 5,500 compounds screened, about 2,000 (36%) were called active. Another 18% or so got no clear call; they are omitted. The list shows a part of the results.
Property: normalized growth
// print number alone

*Q* Given the compound COc1cc(OC)c2c(=O)c(-c3ccc4c(c3)OCO4)coc2c1 , what is its reported normalized growth?
*A* 0.984

*Q* Given the compound COc1c2c(cc3occ(-c4ccc5c(c4)OCO5)c(=O)c13)OC(C)(C)C=C2 , what is its reported normalized growth?
*A* 1

*Q* Given the compound CC(C(=O)O)c1ccc(N2Cc3ccccc3C2=O)cc1 (centres undefined) , what is its reported normalized growth?
*A* 0.991

*Q* Given the compound O=c1c(-c2ccc3c(c2)OCO3)coc2cc(O)ccc12 , what is its reported normalized growth?
*A* 0.988

*Q* Given the compound CC1(C)C[C@@H]2C(=O)CC[C@H]3O[C@]3(C)CC[C@H]21 , what is its reported normalized growth?
*A* 1.02

*Q* Given the compound COc1cc(OC)c2c(c1Cl)OC1(C2=O)C(O)=CC(=O)CC1C (centres undefined) , what is its reported normalized growth?
*A* 1.02

*Q* Given the compound COc1ccc2c(=O)c(-c3cc4c(cc3OC)OCO4)coc2c1 , what is its reported normalized growth?
*A* 1.01

*Q* Given the compound CC1(C)C=Cc2c(cc3occ(-c4ccc5c(c4)OCO5)c(=O)c3c2O)O1 , what is its reported normalized growth?
*A* 1.01

*Q* Given the compound CC(C)=CCc1c(O)cc2occ(-c3ccc4c(c3)OCO4)c(=O)c2c1O , what is its reported normalized growth?
*A* 1

###

# Protocol description: chemical genetic growth profiling, strain panel (AID 1159580);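 also: tested at 20 µM; growth read once vehicle control cultures reached saturation at 30 °C; 1 = growth at the plate median or of vehicle wells; lower values mean less growth of the strain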
# Condition info: S. cerevisiae deletion strains, growth OD, locus YPL106C, strain sse1
The whole screen tested about 5,500 compounds, of which about 2,000 (36%) were called active. About 18% were inconclusive and are not listed. Cut-off read from the data, not from the text of the source: active = normalized growth mostly below about 0.91 (no sharp cut-off); inconclusive = no clear call, values can overlap the other calls; inactive = mostly above about 0.92. The list shows a part of the results.
Valid outcomes are listed here; reply with one: 1 (active), -1 (inactive)

*Q* Tell me the assay call for C[C@]12CCC3C(CC[C@H]4C[C@@H](O)CC[C@]34C)C1CCC2=O (stereo partly drawn) please.
*A* 1

*Q* Tell me the assay call for Cc1cccc(N(C)C(=S)Oc2ccc3ccccc3c2)c1 please.
*A* -1

*Q* Tell me the assay call for O=c1c(-c2ccc3c(c2)OCO3)coc2cc(O)ccc12 please.
*A* -1

*Q* Tell me the assay call for O=C1c2ccccc2C(=O)c2c1ccc(O)c2O please.
*A* 1

*Q* Tell me the assay call for O=C(/C=C/C(=O)Oc1ccccc1C(=O)O)Oc1ccccc1C(=O)O please.
*A* -1

*Q* Tell me the assay call for O=C1c2ccc(O)c(O)c2C(=O)c2c(O)ccc(O)c21 please.
*A* 1

*Q* Tell me the assay call for COc1ccc2c(=O)c(-c3cc4c(cc3OC)OCO4)coc2c1 please.
*A* -1

*Q* Tell me the assay call for CC(=O)c1ccc2c(c1)N(CCCN(C)C)c1ccccc1S2 please.
*A* -1

*Q* Tell me the assay call for CC(C)=CCc1c(O)cc2occ(-c3ccc4c(c3)OCO4)c(=O)c2c1O please.
*A* -1

*Q* Tell me the assay call for COc1ccc2[nH]cc(CCNC(C)=O)c2c1 please.
*A* -1

*Q* Tell me the assay call for CC1(C)C=Cc2c(cc3occ(-c4ccc5c(c4)OCO5)c(=O)c3c2O)O1 please.
*A* -1

*Q* Tell me the assay call for O=C1c2ccccc2C(=O)c2c(O)c(O)cc(O)c21 please.
*A* 1

*Q* Tell me the assay call for O=c1ccc2ccc(O)c(O)c2o1 please.
*A* -1

*Q* Tell me the assay call for Nc1ncnc2c1ncn2[C@@H]1O[C@H](CO)[C@@H](O)[C@@H]1O please.
*A* -1

*Q* Tell me the assay call for C[C@]12CCC3c4ccc(O)cc4CCC3C1CC[C@@H]2OC(=O)CCC1CCCC1 (stereo partly drawn) please.
*A* -1

*Q* Tell me the assay call for CC(=O)OC1CCC23C(=O)OC45CCC(C6=CC(=O)OC6)C4(C)CCC2C5CCC3(O)C1 (stereo not drawn) please.
*A* -1

*Q* Tell me the assay call for CC1=C2CCC3C(CC[C@]4(C)C(=O)CCC34)[C@@]2(C)CCC1=O (stereo partly drawn) please.
*A* -1

*Q* Tell me the assay call for CC(=O)O[C@@H]1CC2C(C)(C)[C@H](O)C[C@H](O)[C@]2(C)C2CC[C@@]3(C)C(=CC(=O)O[C@H]3c3ccoc3)[C@@]21C (stereo partly drawn) please.
*A* -1

*Q* Tell me the assay call for CSCCC(NC=O)C(=O)NC(CC(C)C)C(=O)NC(Cc1ccccc1)C(=O)O (stereo not drawn) please.
*A* -1

*Q* Tell me the assay call for OCCN1CCN(CCCN2c3ccccc3Sc3ccc(Cl)cc32)CC1 please.
*A* -1

*Q* Tell me the assay call for CC(=O)OC1CCC2C3CCc4cc(O)ccc4C3CCC12C (stereo not drawn) please.
*A* 1

*Q* Tell me the assay call for CN1CCN(CCCN2c3ccccc3Sc3ccc(Cl)cc32)CC1 please.
*A* -1

*Q* Tell me the assay call for N#Cc1ccc2c(c1)N(CCCN1CCC(O)CC1)c1ccccc1S2 please.
*A* -1

Cited source for all entries: PubChem BioAssay AID1159580
